B1: Gamma-crystallin C, residues 4 to 79; numbered along this chain, P07315 (parent)
chain: ITFYEDRAFQGRSYETTTDCPNLQPYFSRCNSIRVESGCWMLYERPNYQGQQYLLRRGEYPDYQQWMGLSDSIRSC

- Variants of: B1
- Protocol notes: abundance fitness (aPCA) (normalised: wild type 0, dead -1); higher = more abundant; growth selection in yeast, the domain comes from the species named
- Test context: Homo sapiens
Reported abundance fitness values for the following variants.

{"Mutation id": "Y14D", "abundance fitness": -0.895}
{"Mutation id": "W66E", "abundance fitness": 0.068}
{"Mutation id": "G50M", "abundance fitness": -1.02}
{"Mutation id": "P25F", "abundance fitness": -0.076}
{"Mutation id": "Y14W", "abundance fitness": 0.112}
{"Mutation id": "E36K", "abundance fitness": -0.074}
{"Mutation id": "S70Y", "abundance fitness": 0.047}
{"Mutation id": "S75T", "abundance fitness": -0.828}
{"Mutation id": "L23G", "abundance fitness": -0.727}
{"Mutation id": "I33W", "abundance fitness": -0.776}
{"Mutation id": "G58P", "abundance fitness": -0.674}
{"Mutation id": "L23N", "abundance fitness": -0.676}
{"Mutation id": "S75R", "abundance fitness": -0.479}
{"Mutation id": "G68E", "abundance fitness": -0.062}
{"Mutation id": "Q10H", "abundance fitness": 0.124}
{"Mutation id": "T2N", "abundance fitness": -0.002}
{"Mutation id": "G68R", "abundance fitness": 0.079}
{"Mutation id": "S28E", "abundance fitness": 0.093}
{"Mutation id": "L55C", "abundance fitness": -0.178}
{"Mutation id": "Q49L", "abundance fitness": 0.022}
{"Mutation id": "D71C", "abundance fitness": -0.017}
{"Mutation id": "F3R", "abundance fitness": -1.18}
{"Mutation id": "N31V", "abundance fitness": -0.052}
{"Mutation id": "S28F", "abundance fitness": 0.044}
{"Mutation id": "L69H", "abundance fitness": -0.045}
{"Mutation id": "G68P", "abundance fitness": -0.02}
{"Mutation id": "F3I", "abundance fitness": -0.368}
{"Mutation id": "Q65A", "abundance fitness": 0.006}
{"Mutation id": "L69M", "abundance fitness": -0.163}
{"Mutation id": "D62C", "abundance fitness": -0.177}
{"Mutation id": "R56T", "abundance fitness": 0.071}
{"Mutation id": "S75Q", "abundance fitness": -0.327}
{"Mutation id": "R34P", "abundance fitness": -0.827}
{"Mutation id": "T18I", "abundance fitness": -0.031}
{"Mutation id": "Y4F", "abundance fitness": 0.333}
{"Mutation id": "I1L", "abundance fitness": -0.4}
{"Mutation id": "Q49G", "abundance fitness": -0.045}
{"Mutation id": "A8M", "abundance fitness": 0.013}
{"Mutation id": "A8R", "abundance fitness": -0.005}
{"Mutation id": "M67S", "abundance fitness": -0.057}
{"Mutation id": "P21C", "abundance fitness": -0.119}
{"Mutation id": "W66V", "abundance fitness": 0.018}
{"Mutation id": "S13G", "abundance fitness": -0.024}
{"Mutation id": "T17L", "abundance fitness": -0.089}
{"Mutation id": "G50D", "abundance fitness": -0.456}
{"Mutation id": "R56N", "abundance fitness": 0.034}
